Every entry's value here was drawn from the RNAGym collection of RNA variant scans (doi:10.7554/elife.80360).

B1: HDV Ribozyme (parent)
chain: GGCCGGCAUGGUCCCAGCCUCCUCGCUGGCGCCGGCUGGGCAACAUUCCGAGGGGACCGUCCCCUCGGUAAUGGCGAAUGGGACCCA

Variants of: B1
Measurement Notes: self-cleavage, relative activity (ratio to wild type); higher = more cleavage; co-transcriptional
Outcome: 1 for self-cleavage of at least 0.2; -1 for anything lower.

| Sequence Entry | Answer Label |
| --- | --- |
| GGCCGGCAUGGUCCCAGCCUCCUCGCUGGCGCCGGCUGGGCAACAUUCCGAGGGGAACGUCGCCUCGGUAAUGGCGAAUGGGACCCA | 1 |
| GGCCGGCGUGGUGCCAGCCUCCUCGCUGGCGCCGGCUGGGCAACAUUCCGAGGGGACCGUCCCCUCGGUAAUGGCGAAUGGGACCCA | -1 |
| GGCCGGCAUGGUCCCAGCCUCCUCGCUGGCGCCGGCUGGGCAACAUUCCGCGGGGACCGUCCCCUAGGUAAUGGCGAAUGGGACCCA | 1 |
| GGCCGGCAUGGGCCCAGCCUCCUCGCUGGCGCCGGCUGGGCAACAUUCCGAGGGGACCGUCCCCUCGGUAAUGGCGAAGGGGACCCA | 1 |
| GGCCGGCAUGGUCCCAGCCUCCUCGCUGGCGCCGGCUGGGCAACAUUACGAGGGGACCGUCCCCUCGGUAAUGGCGAAUGGGACCCA | 1 |
| GGCCGGCAUGGUCCCAGCCUCCUCGCUGGCGCCGGCUGGGCAACAUUCCGAGGGGACCGUCCGCUCGGUAAUGGCGAAAGGGACCCA | 1 |
| GGCCGGCAUGGUCCCAGCCUCCUCGCUGGCGCCGGCUGGGCAACAUUCCGAGGGAACCGUCCCCUCGGUAAUGACGAAUGGGACCCA | 1 |
| GGCCGGCAUGGUCCCAGCCUCCUCGCUGGCGCCGGCUGGGUAACAUUCCGAGGGGACCGUCCCCUCGGUAAUGUCGAAUGGGACCCA | 1 |
| GGCCGGCAUGGUCCCAGCCUCCUCGCAGGCGCCGGCUGGGCAACAUUCCGAGGGGACCGUCCCCUCGGUAAUGGCGAAUGGUACCCA | 1 |
| GGCCGGCAUGGUCCCAGCCGCCUCGCUGGCGCCAGCUGGGCAACAUUCCGAGGGGACCGUCCCCUCGGUAAUGGCGAAUGGGACCCA | -1 |
| GGCCGGCAUGGUCCCAGCCUCCUCGCUGGCGCCGGCUGGGCAACAUUCCGAGGGGACCGUUCCCUCGGUAAUGGCGAAUGGGCCCCA | 1 |
| GGCCGGCAUGGCCCCAGCCUCCUCGCUGGCGCAGGCUGGGCAACAUUCCGAGGGGACCGUCCCCUCGGUAAUGGCGAAUGGGACCCA | -1 |
| GGCCGGCAUGGUCCCAGCCUCUUCGCUGGCGCCGGCUGGGCAACAUUCCGAGGGGACCGUCCCCUCGGUAAGGGCGAAUGGGACCCA | -1 |
| GGCCGGCAUGGUCCCAGCCUCCUCGCUGCCGCCGGCUGGGCAACAUUCAGAGGGGACCGUCCCCUCGGUAAUGGCGAAUGGGACCCA | 1 |
| GGCCGGCAUGGUCCCAGCCUCCUCGCUGGCGCCGGCUGGGCAACAUUCCGAGGGGACCGUCCCCUCGGUAAUGGCGAAAGUGACCCA | 1 |
| GGCCGGCAUGGUCCCAGCUUCCUCGCUGGCGCCGGCUGGGCAACAUUCCGAGGGGACCGUCCCCUCGGUAAUGGCGAAUGGGACGCA | -1 |
| GGCCGGCAUGAUCCCAGCCUCCUCGCUGGCGCCGGCUGGGCAACAUUCCGAGGGGACCGUCCCCUCGGUAAUGGCGGAUGGGACCCA | 1 |
| GGCCGGCCUGGUCCCAGCCUCCUCGCUGGCGCCGGCUGGGCAACAUUCCGAGGGGACCGUCCCCUCGGUAAGGGCGAAUGGGACCCA | 1 |
| GGCCGGCAUGAUCCCAGCCUCCUCGCUGGCGCCGGCUGGGCAACAUUCCGAGGGGACCGUCCCCUCGGUAAUGGCGAAUUGGACCCA | -1 |
| GGCCGGCAUGGUCCCAGCCUCCUCGCUGGCGCCGGCUGGGCAACAUUCCGAGGGGACCGUCCCCUCGCUAAUGGCGAAUGGGACCCA | 1 |
| GGCCGGCAUGGUCCCAGCCUCCUCGCUGGCGCCGGCUGGGCAACAUUCCGUGGGGACCGUCCCCUCCGUAAUGGCGAAUGGGACCCA | 1 |
| GGCCGGCAUGGUCCCAGCCUCCUCGCUGGCGCCGGCUGGGCAACAUUUCGAGGGGACCGUCCCCUCGGUAAUGGCGAAUGGGACCCA | 1 |
| GGCCGGCAUGGUCCCAGCCUCCUCGCUGGCGCCGGCUGGGCAACAUUCCGAGGGGACCGACCCCUCGCUAAUGGCGAAUGGGACCCA | 1 |
| GGCCGGCAUGGUCCCAGCCUCCUCGCUGGCGCCGGCUGGGCAACAUUCCGCGGGGACCGUCCCCUGGGUAAUGGCGAAUGGGACCCA | 1 |
| GGCCGGCAUGGUCCCAGCCUCCUCGCUGGCGCCGGCUGGGCAACAUUCCGAGGGGACCGUCCCCUCGGUAUCGGCGAAUGGGACCCA | 1 |
| GGCCGGGAUGGUCCCAGCCUCCUCGCUGGCGCCGGCUGGGCAACAUUCCGAGGGGACCGUCCCCUCGGUCAUGGCGAAUGGGACCCA | 1 |
| GGCCGGCAUGGUCCCAGCCUCCUCGCUGGCGCCGGCUGGGCAGCAUUCCGAGGGGACCGUCCGCUCGGUAAUGGCGAAUGGGACCCA | 1 |
| GGCCGGCAUGGUCCCAGCCUCCUCGCUGGUGCCGGCUGGCCAACAUUCCGAGGGGACCGUCCCCUCGGUAAUGGCGAAUGGGACCCA | -1 |
| GGUCGGCAUGGUGCCAGCCUCCUCGCUGGCGCCGGCUGGGCAACAUUCCGAGGGGACCGUCCCCUCGGUAAUGGCGAAUGGGACCCA | -1 |
| GGACGGCAUGGUCCCAGCCUCCACGCUGGCGCCGGCUGGGCAACAUUCCGAGGGGACCGUCCCCUCGGUAAUGGCGAAUGGGACCCA | 1 |
| GGCCAGCAUGGUCCCAGCCUCCUCGCUGGCGCCGGCUGGGCAACAUUCAGAGGGGACCGUCCCCUCGGUAAUGGCGAAUGGGACCCA | 1 |
| GGCCGGCAUGGUCCCAGCCUCCUCGCUGGAGCCGGCUGGGCAACAUUCCGAGGGGACCGUCCCCACGGUAAUGGCGAAUGGGACCCA | 1 |
| GGCCGGCAUGGUCCAAGCCUCCUCGCUGGCGCCGGCUGGGCAACAUUCCGAGGGGACCGUCCCCUCGGUAAUGGCGAAUGGGACCGA | 1 |
